experimental.target: p53-MDM2 interaction (GST-MDM2 protein aa 23-117 / biotinylated p53 wt peptide) (Homo sapiens (Human), UniProt Q00987)
Sequence (Q00987 23-117): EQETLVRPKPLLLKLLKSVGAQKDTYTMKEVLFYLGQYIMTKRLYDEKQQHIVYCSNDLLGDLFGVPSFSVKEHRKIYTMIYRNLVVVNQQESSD
procedure.details: Mdm2-p53 Inhibition AlphaScreen
condition.info: GST-MDM2 (aa 23-117) / biotinylated p53 wt peptide
quantity.name: IC50 (nM)

| substance.smiles | recorded.measurement |
| --- | --- |
| O=C(O)c1ccc2c(c1)nc1n2CC[C@H]2[C@@H]1[C@H](c1cccc(Cl)c1F)[C@]1(C(=O)Nc3cc(Cl)ccc31)N2CC1CCC1 | 4 |
| O=C(O)c1ccc2c(c1)nc1n2C[C@H]2[C@@H]1[C@H](c1cccc(Br)c1F)[C@]1(C(=O)Nc3cc(Cl)ccc31)N2CC1CC1 | 4 |
| O=C(O)c1ccc2c3n(nc2c1)[C@@H]1[C@H](C3)N(CC2CCC2)[C@@]2(C(=O)Nc3cc(Cl)ccc32)[C@H]1c1cccc(Cl)c1F | 4 |
